test system: Escherichia coli TOP10; assay: shrunken log2 fold change of peptide-encoding DNA abundance (4.5 h post-induction vs induction); higher = less antimicrobial activity (less host growth inhibition); conditions: time post-induction: 4.5 h; library: site-saturation at positions 5, 18, 19, 20;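 further: peptides expressed intracellularly from a pBAD plasmid library in pooled LB shake-flask culture, induced with 0.3% L-arabinose, DNA abundance read by NGS, three biological replicates, DESeq2 with apeglm shrinkage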
Use -0.06 as the dividing line for shrunken log2 fold change, with the line itself on the Satisfied side and lower values as Not satisfied.

Examples from the recorded data:
[
  {
    "Construct sequence": "RRIRMRPPRLPRPRPRPEHIPRP",
    "Class label": "Satisfied"
  },
  {
    "Construct sequence": "RRIRPRPPRLPRPRPRPIKLPRP",
    "Class label": "Not satisfied"
  },
  {
    "Construct sequence": "RRIRDRPPRLPRPRPRPFEPPRP",
    "Class label": "Satisfied"
  },
  {
    "Construct sequence": "RRIRLRPPRLPRPRPRPGFDPRP",
    "Class label": "Satisfied"
  },
  {
    "Construct sequence": "RRIRERPPRLPRPRPRPMVGPRP",
    "Class label": "Satisfied"
  },
  {
    "Construct sequence": "RRIRSRPPRLPRPRPRPWKPPRP",
    "Class label": "Satisfied"
  },
  {
    "Construct sequence": "RRIRTRPPRLPRPRPRPLKSPRP",
    "Class label": "Satisfied"
  },
  {
    "Construct sequence": "RRIRIRPPRLPRPRPRPEGKPRP",
    "Class label": "Satisfied"
  },
  {
    "Construct sequence": "RRIRPRPPRLPRPRPRPISVPRP",
    "Class label": "Not satisfied"
  },
  {
    "Construct sequence": "RRIRYRPPRLPRPRPRPNWTPRP",
    "Class label": "Satisfied"
  }
]

### Prompt Quick check, shrunken log2 fold change >= -0.06? RRIRTRPPRLPRPRPRPQITPRP
### Response Not satisfied

### Prompt Also RRIRRRPPRLPRPRPRPHIQPRP , if possible.
### Response Not satisfied

### Prompt Also RRIRARPPRLPRPRPRPDKHPRP , if possible.
### Response Not satisfied

### Prompt Also RRIRIRPPRLPRPRPRPHVMPRP , if possible.
### Response Not satisfied
